Known soluble fraction (log2) of a selection of sequences
# test.description: soluble fraction after stress (log2 fold change); higher = more stays soluble; pooled small domains, quantitative proteomics
# experimental.parameters: stress: pH 4
Just the number, please, no unit attached.

# count of solved cases: 8
# sequence.entry, soluble fraction (log2)
rows = [
    ("HMTDSISLTLNGDPRPFRAGATVADLVRDIGLDPAKVAVERNLEIVPRSTLENVHLADGDVLEIVHFV", -0.45),
    ("HMDESLIEEAKAMILQMKIEGSVRVRSNGLLEFRNPLFGSVYGRSVEELQEKLNKKVREQKSRI", 0.194),
    ("HMGRFAETVEHIVAAQLARRQGIPTMEQFASFFNVSRATFQRRLGEEGETLEQIKQRVRLRLALELLHP", -0.441),
    ("HMADYYETLGVERTASEEDIKRAYRKMSRKYHPDIAGPEFEEKFKEVNTAYEVLSDPDKRRMYDAGVDPND", 0.0648),
    ("HMLPDHAPITMRQLAMLHVAKNKLDLTDEDYRSLLLLYGGVESSKQLNQEGLRRVLDRFKELGFEP", -0.258),
    ("HMQTFGTMIAALRKEQGMTQLELAEKMGVTDKAVSKWERDLSFPDVNSLPKLAEIFHVSVDEL", 0.216),
    ("HMDPSWVPVFNNLRDAILSHQLLPGTRLAEDELSNIYGLGRTVIRSALGALTHEGLLTHIPNRGVHVAKP", -0.585),
    ("HMVAESGLPPAFRSTWRHIMQTRGAQLDVLAMRTGTDAASLQKQLHAMELGGWVRRMPGGWYVPLK", -0.1),
]

Turning to the following sequence.
# query: soluble fraction (log2) of entry HMDILPEGNYKVNYDVIDEVGNIVANKNDIVVTEKSIKPLNTILGIDLYEVIHSQTGKYFTINGDNLTN
-0.328

All values here come from the domain aggregation screens of Martell et al. (2025).
